system: IFNα stimulated Kit225 T cells with STAT-dependent luciferase reporter; experiment: Kit225 T Cell Assay, IFNα stimulated STAT-dependent luciferase reporter; type: cell-based, human; details: KIT225; 200 U/mL human recombinant IFNα, 5-6 hours, luciferase reporter; read-out: IFN[…] Kit 225 IC50
pIC50: −log10 of the molar value.
Readout Label: pIC50

// known answers, use as guide
Compound: [2H]C([2H])([2H])NC(=O)c1nnc(Nc2ccc(C(C)(C)O)c(F)n2)cc1Nc1ncccc1P(C)(C)=O [Example 34]
pIC50: 6.46
--
Compound: [2H]C([2H])([2H])NC(=O)c1nnc(Nc2cccc(C)n2)cc1Nc1ncccc1P(C)(C)=O [Example 18]
pIC50: 7.48
--
Compound: [2H]C([2H])([2H])NC(=O)c1nnc(Nc2cc(C)nc(C)n2)cc1Nc1ccccc1P(C)(C)=O [Example 3]
pIC50: 5.81
--
Compound: [2H]C([2H])([2H])NC(=O)c1nnc(Nc2ccn(C)n2)cc1Nc1ncccc1P(C)(C)=O [Example 23]
pIC50: 6.18
--
Compound: [2H]C([2H])([2H])NC(=O)c1nnc(Nc2cc(F)ccn2)cc1Nc1ncccc1P(C)(C)=O [Example 25]
pIC50: 7.05
--
Compound: [2H]C([2H])([2H])NC(=O)c1nnc(NC(=O)C2CC2)cc1Nc1ccccc1P(C)(C)=O [Example 2]
pIC50: 5.50
--
Compound: [2H]C([2H])([2H])NC(=O)c1nnc(Nc2ccccn2)cc1Nc1ncccc1P(C)(C)=O [Example 14]
pIC50: 6.90
--
Compound: [2H]C([2H])([2H])NC(=O)c1nnc(Nc2ccc(F)cn2)cc1Nc1ncccc1P(C)(C)=O [Example 15]
pIC50: 7.32

1. [2H]C([2H])([2H])NC(=O)c1nnc(NC(=O)OCC)cc1Nc1ncccc1P(C)(C)=O [Example 19]
2. [2H]C([2H])([2H])NC(=O)c1nnc(Nc2ccc(C(F)(F)F)cn2)cc1Nc1ncccc1P(C)(C)=O [Example 39]
3. [2H]C([2H])([2H])NC(=O)c1nnc(NC(=O)C2CC23CC3)cc1Nc1ncccc1P(C)(C)=O (stereo not drawn) [Example 33]
Arrange the 3 entries by pIC50 so the values rise. Order the labels as requested and list them.
1, 3, 2

1. [2H]C([2H])([2H])NC(=O)c1nnc(Nc2cc(COC)ccn2)cc1Nc1ncccc1P(C)(C)=O [Example 20]
2. [2H]C([2H])([2H])NC(=O)c1nnc(Nc2ccc(C(C)(C)O)cn2)cc1Nc1ncccc1P(C)(C)=O [Example 16]
3. [2H]C([2H])([2H])NC(=O)c1nnc(Nc2ccc(C(O)(C(F)(F)F)C(F)(F)F)cn2)cc1Nc1ncccc1P(C)(C)=O [Example 41]
Arrange by pIC50, high to low. Order the labels as requested and list them.
1, 3, 2
(1: 7.30, 3: 6.69, 2: 6.17)
